FYI, the data here is from patent US20230235040A1.

In this section we review reported kon values for a set of binders.
Test System: T1, hu-IL-36γ (human IL-36γ, N-terminally truncated active form S18-D169) (human, UniProt Q9NZH8 18-169)
T1 construct: Purification tag cleaved off; Biotinylated where captured; also called hu-IL-36g
T1 sequence: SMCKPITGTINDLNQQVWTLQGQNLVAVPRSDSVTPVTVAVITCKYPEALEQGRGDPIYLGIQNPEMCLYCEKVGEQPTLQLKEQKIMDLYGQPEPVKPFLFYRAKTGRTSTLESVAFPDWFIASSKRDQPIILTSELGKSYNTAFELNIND
Assay Details: SPR (Biacore 8K), biotinylated hu-IL-36 captured on CAP chip, Fab injected, 37°C
Number in M⁻¹ s⁻¹, nothing else.

Examples with their reported kon follow.
Binder: mAb2.10 Fab (Fab, V domains shown, Recombinant Fab with 8xHis tag (Expi293F)) VH: ELQLQESGPGLVKPSETLSLTCTVSGGSISDSSYYWGWIRQPPGKGLEWIGSIYYTGETYYAPSLKSRVTISVDTSKNQFSLKLSSVTAADTAVYYCARVRYGVGVPRHFDPWGQGTLVTVSS VL: ESVLTQPPSVSGAPGQRVTISCTGSSSNIGAHYDVHWYQQLPGTAPKLLIYGNDNRPSGVPDRFSGSKSGTSASLAITGLQAEDEADYYCQSYDYSLSGYVFGGGTKLTVL
kon (M⁻¹ s⁻¹): 1.37e+06
//
Binder: mAb2.9 Fab (Fab, V domains shown, Recombinant Fab with 8xHis tag (Expi293F)) VH: ELQLQESGPGLVKPSETLSLTCTVSGGSISDSSYYWGWIRQPPGKGLEWIGSIYYTGETYYAPSLKSRVTISVDTSKNQFSLKLSSVTAADTAVYYCARVKYGVGVPRYFDPWGQGTLVTVSS VL: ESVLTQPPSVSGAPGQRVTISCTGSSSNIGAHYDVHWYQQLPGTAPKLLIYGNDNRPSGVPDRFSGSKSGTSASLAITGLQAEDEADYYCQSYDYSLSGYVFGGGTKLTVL
kon (M⁻¹ s⁻¹): 2.4e+06
//
Binder: mAb2.11 Fab (Fab, V domains shown, Recombinant Fab with 8xHis tag (Expi293F)) VH: ELQLQESGPGLVKPSETLSLTCTVSGGSISESSYYWGWIRQPPGKGLEWIGSIYYTGETYYAPSLKSRVTISVDTSKNQFSLKLSSVTAADTAVYYCARLRYGVGVPRYFDPWGQGTLVTVSS VL: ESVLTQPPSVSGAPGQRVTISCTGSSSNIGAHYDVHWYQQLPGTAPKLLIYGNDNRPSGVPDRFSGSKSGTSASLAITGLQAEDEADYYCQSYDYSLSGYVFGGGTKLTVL
kon (M⁻¹ s⁻¹): 1.92e+06

Consider the record given below.
Query: Please look up its kon: mAb2.12 Fab (Fab, V domains shown, Recombinant Fab with 8xHis tag (Expi293F)) VH: ELQLQESGPGLVKPSETLSLTCTVSGGSISESSYYWGWIRQPPGKGLEWIGSIYYTGETYYAPSLKSRVTISVDTSKNQFSLKLSSVTAADTAVYYCARVKYGVGVPRYFDPWGQGTLVTVSS VL: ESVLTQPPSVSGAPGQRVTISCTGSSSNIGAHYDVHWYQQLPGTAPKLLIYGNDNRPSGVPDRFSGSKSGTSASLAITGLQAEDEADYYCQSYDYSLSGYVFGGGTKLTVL
Result: 1.81e+06
